Species: Rattus norvegicus
Experiment: Open TG-GATES - Regimen: Single
Format: toxicity, organism-based, Sprague-Dawley
Parameters: regimen Single, gender Male, age 6 weeks
Settings: in vivo, po, 10 mg/kg, 24 h, tissue Kidney, route gavage, dose level Low
Assignment: determine reported KIDNEY_TOTAL for the given molecules.
Report the value in g with no unit label.

Assign KIDNEY_TOTAL to the following record: CN(C)CCCN1c2ccccc2CCc2ccc(Cl)cc21 [CLOMIPRAMINE] 2.1

Provide measured KIDNEY_TOTAL value, entry: CC1=C(/C=C/C(C)=C/C=C/C(C)=C/CO)C(C)(C)CCC1 [RETINOL] 2

Please report KIDNEY_TOTAL for the following molecule: CN(C)CCN(Cc1cccs1)c1ccccn1 1.7

Please look at this molecule and report its KIDNEY_TOTAL: CC(C)OC(=O)C(C)(C)Oc1ccc(C(=O)c2ccc(Cl)cc2)cc1 [FENOFIBRATE] 1.6

Please list KIDNEY_TOTAL recorded for the molecule CN(C)CCCN1c2ccccc2CCc2ccccc21 [IMIPRAMINE] 1.8
